Molecular target: T1, CRBN, Q96SW2;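 note: pooled lentiviral library of zinc finger degron-EGFP fusions in mCherry-positive Jurkat cells, FACS-sorted after compound exposure, with degron abundance counted by next-generation sequencing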
T1 chain: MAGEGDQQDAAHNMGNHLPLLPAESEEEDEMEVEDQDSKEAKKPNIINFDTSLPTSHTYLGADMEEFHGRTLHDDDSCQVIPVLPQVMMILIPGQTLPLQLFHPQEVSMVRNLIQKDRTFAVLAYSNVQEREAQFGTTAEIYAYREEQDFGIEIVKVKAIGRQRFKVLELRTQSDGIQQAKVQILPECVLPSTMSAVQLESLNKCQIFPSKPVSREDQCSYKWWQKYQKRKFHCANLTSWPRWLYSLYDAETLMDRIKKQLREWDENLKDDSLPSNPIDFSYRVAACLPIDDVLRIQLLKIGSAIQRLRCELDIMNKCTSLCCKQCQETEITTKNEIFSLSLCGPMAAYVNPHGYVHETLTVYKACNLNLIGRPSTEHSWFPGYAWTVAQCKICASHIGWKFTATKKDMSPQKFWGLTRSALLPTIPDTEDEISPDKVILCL
Test: log2 fold change of degron read counts, EGFP-low vs EGFP+ sorted cells (limma voom), compound-induced degradation; higher = more compound-induced degradation of the degron-EGFP fusion; degrons are variants of IKZF1/3 zinc finger 2; compound dose not given here
Conditions: Jurkat; 18 h; compound: thalidomide
Whole data set: some 8,300 sequences, median “log2 fold change of degron read counts, EGFP-low vs EGFP+ sorted cells (limma voom), compound-induced degradation” near -1.1, cut for the highest 2% near 3.2. The full list was thinned out, with the highest values kept by preference.
# log2 fold change of degron read counts per entry
Number only, please.

Worked set:
FRCPVCGAPFTQKGNLLRHIKL [46F_47R_49P_50V_52G_53A_54P_55F_67L_, Q9UKT9] : 3.51
FQCNQCGANFTQKGNLLRHIKL [46F_47Q_49N_50Q_52G_53A_54N_55F_67L_, Q9UKT9] : -0.0144
LGCEICGFTCTQKGNLLRHIKL [46L_47G_49E_50I_52G_53F_54T_55C_67L_, Q9UKT9] : 0.415
LACEICGFTCTQKGNLLRHIKL [46L_47A_49E_50I_52G_53F_54T_55C_67L_, Q9UKT9] : 1.36
LDCNQCGFQCTQKGNLLRHIKL [46L_47D_49N_50Q_52G_53F_54Q_55C_67L_, Q9UKT9] : -1.93
FECNQCGAHFTQKGNLLRHIKL [46F_47E_49N_50Q_52G_53A_54H_55F_67L_, Q9UKT9] : -2.34
FLCDQCGAYFTQKGNLLRHIKL [46F_47L_49D_50Q_52G_53A_54Y_55F_67L_, Q9UKT9] : -2.41
FSCPICGHEFTQKGNLLRHIKL [46F_47S_49P_50I_52G_53H_54E_55F_67L_, Q9UKT9] : -2.6

Suppose we examine the sequence FACEQCGAYFTQKGNLLRHIKL [46F_47A_49E_50Q_52G_53A_54Y_55F_67L_, Q9UKT9] ; what log2 fold change of degron read counts value has been reported?
-1.62

Query: log2 fold change of degron read counts; subject: LSCEICGFTCTQKGNLLRHIKL [46L_47S_49E_50I_52G_53F_54T_55C_67L_, Q9UKT9]
1.96
